- study.target: T1, Human CD24 (human, UniProt P25063 27-59, limits assumed)
- T1 chain (looked up): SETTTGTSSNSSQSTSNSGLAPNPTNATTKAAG
- test.summary: SPR, second 1:1 binding column set
property: kon (M⁻¹ s⁻¹)
The figure you give is taken to be in M⁻¹ s⁻¹; do not add the unit.

Prompt: Consider the binder shown here: Antibody No 15 (4451HM15), lead clone of 4451H (HC N35G, T59Y; LC K27A) (antibody, V domains shown) VH: QVQLVQSGAEVKKPGASVKVSCKASGYDFTGYHMGWVRQAPGQGLEWMGEINPITSDKYFNQKFKSRVTMTRDTSISTAYMELSRLRSDDTAVYYCARRDYGTSLDYWGQGTTVTVSS VL: DIQLTQSPSFLSASVGDRVTITCRASASISKYLAWYQQKPGKAPKLLIYAGSTLHSGIPSRFRGSGSGTEFTLTISSLQPEDFATYYCQQHNEYPITFGQGTKLEIK What is its recorded kon?
Response: 1.28e+06

Prompt: Consider the binder shown here: Antibody No 3, lead clone of 4451H (HC N35G; LC L33G, T97I) (antibody, V domains shown) VH: QVQLVQSGAEVKKPGASVKVSCKASGYDFTGYHMGWVRQAPGQGLEWMGEINPITSDKTFNQKFKSRVTMTRDTSISTAYMELSRLRSDDTAVYYCARRDYGTSLDYWGQGTTVTVSS VL: DIQLTQSPSFLSASVGDRVTITCRASKSISKYGAWYQQKPGKAPKLLIYAGSTLHSGIPSRFRGSGSGTEFTLTISSLQPEDFATYYCQQHNEYPIIFGQGTKLEIK What is its recorded kon?
Response: 1.66e+06

Prompt: Consider the binder shown here: Antibody No 17, lead clone of 4451H (HC N35G, T59Y; LC L33G) (antibody, V domains shown) VH: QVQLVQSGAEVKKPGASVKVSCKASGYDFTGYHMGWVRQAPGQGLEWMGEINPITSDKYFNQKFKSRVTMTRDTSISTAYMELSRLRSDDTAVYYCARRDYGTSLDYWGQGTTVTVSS VL: DIQLTQSPSFLSASVGDRVTITCRASKSISKYGAWYQQKPGKAPKLLIYAGSTLHSGIPSRFRGSGSGTEFTLTISSLQPEDFATYYCQQHNEYPITFGQGTKLEIK What is its recorded kon?
Response: 1.23e+06

Prompt: Consider the binder shown here: Antibody No 16, lead clone of 4451H (HC N35G, T59Y; LC S30K) (antibody, V domains shown) VH: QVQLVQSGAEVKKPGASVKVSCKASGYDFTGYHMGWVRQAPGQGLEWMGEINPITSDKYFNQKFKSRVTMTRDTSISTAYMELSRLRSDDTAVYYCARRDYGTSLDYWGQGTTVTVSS VL: DIQLTQSPSFLSASVGDRVTITCRASKSIKKYLAWYQQKPGKAPKLLIYAGSTLHSGIPSRFRGSGSGTEFTLTISSLQPEDFATYYCQQHNEYPITFGQGTKLEIK What is its recorded kon?
Response: 1.16e+06
